Listed compounds paired with reported RP-LC retention time
Assay: gradient 5% acetonitrile 3 min, to 50% in 2 min, to 85% in 15 min, held 3 min, 100 µL/min
Conditions: column: Zorbax Extend-C18 2.1 x 50 mm; eluents: water / acetonitrile, 0.1% formic acid
The response must be a number in s with no trailing unit.

| compound | observed-result |
| --- | --- |
| CCS(=O)(=O)N1CC(=O)N(c2ccc(Cl)cc2)C(C)(C(=O)NC2CCCCCCC2)C1 (stereo not given) | 993 |
| COc1ccc(N2CCN(c3cc(SCC(=O)NCc4ccccc4OC)ncn3)CC2)cc1 | 888 |
| CCC(c1cccs1)N1C(=O)[C@H]2CN(S(=O)(=O)c3ccccc3)C[C@H]2C1=O (stereo not given in full) | 946 |

Query: Which RP-LC retention time is listed for COc1ncccc1C(=O)NCc1nnc(C)o1 ?
Reply: 579

Query: Form field: reported RP-LC retention time of Fc1ccc(-c2noc(-c3ccc(N4CCOCC4)nc3)n2)cc1
Reply: 1080

Query: Quick one: RP-LC retention time for CCN1C(=O)COc2ccc(-c3noc(-c4ccc(OC)c(OC)c4)n3)cc21 ?
Reply: 1020

Query: Data request, read-out RP-LC retention time, for O=C(c1ccc([N+](=O)[O-])o1)N1CC2CC(C1)c1cccc(=O)n1C2 (stereo not given)
Reply: 585

Query: # input compound: O=C(NCc1cccc(Cl)c1)c1c(O)c2cccnc2n(-c2cccc(F)c2)c1=O ; wanted: its RP-LC retention time
Reply: 1240

Query: Could you share which RP-LC retention time value was measured for Cc1ccc(NS(=O)(=O)c2cc3n(c2)CCN(CC(C)C)C3=O)cc1C ?
Reply: 846

Query: Find the recorded RP-LC retention time belonging to Cn1nc(-c2nc(C3CC3)no2)c2c1CCN(C(=O)c1cccc(C(F)(F)F)c1)C2 and report it.
Reply: 906
